Study system: T1, GFP-9S library array, motif 4 ND N98A;D124R (synthetic construct, N98A;D124R)
T1 chain: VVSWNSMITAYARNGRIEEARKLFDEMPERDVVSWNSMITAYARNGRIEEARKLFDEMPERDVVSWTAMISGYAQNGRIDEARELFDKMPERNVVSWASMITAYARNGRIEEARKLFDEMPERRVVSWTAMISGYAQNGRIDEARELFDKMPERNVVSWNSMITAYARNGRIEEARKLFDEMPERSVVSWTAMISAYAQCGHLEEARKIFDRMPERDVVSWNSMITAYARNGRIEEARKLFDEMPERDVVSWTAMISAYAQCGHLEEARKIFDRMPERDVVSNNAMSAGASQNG
Experiment: high-throughput RNA pulldown from lysate on Ni-NTA beads; HRP: 50 mM Tris pH 8, 150 mM NaCl, 1 mM beta-mercaptoethanol, 50 ug/ml BSA, 3 ug/ml yeast RNA, 0.5% heparin; ITC and FP: Tris pH 8, 200 mM KCl, 5% glycerol; MST: 50 mM Tris pH 8, 200 mM NaCl, 1 mM DTT, BSA, heparin, 0.05% Tween 20
Condition context: tags: N-terminal His-eGFP; label: 5' IRDye 800CW
Measured pKd of individual entries
pKd (log units): -log10 of the concentration in mol/L.

Complete the entry with pKd for AUUAUACGUGA (ssRNA) [IR-rpoA-U]
6.80

Kindly indicate its recorded pKd. Item: AUUAAACGUGA (ssRNA) [IR-rpoA-A]
6.59
